Reference source for all entries: ChEMBL document CHEMBL1614632

# assay-remarks: clinical
# assay-setup: human, in vivo, iv, t1/2
Kindly supply the reported half-life values for the records listed here.
Numbers only, in h.

Some solved entries appear below for comparison.
>>> endpoint_value("S=P(N1CC1)(N1CC1)N1CC1 [THIOTEPA]")
2.7
>>> endpoint_value("CC(C)(C)NC(=O)[C@@H]1CN(Cc2cccnc2)CCN1C[C@@H](O)C[C@@H](Cc1ccccc1)C(=O)N[C@H]1c2ccccc2C[C@H]1O.O")
1
>>> endpoint_value("CCNC(=O)[C@@H]1CCCN1C(=O)[C@H](CCCNC(=N)N)NC(=O)[C@H](CC(C)C)NC(=O)[C@@H](CC(C)C)NC(=O)[C@H](Cc1ccc(O)cc1)NC(=O)[C@H](CO)NC(=O)[C@H](Cc1c[nH]c2ccccc12)NC(=O)[C@H](Cc1c[nH]cn1)NC(=O)[C@@H]1CCC(=O)N1 [LEUPROLIDE]")
2.9
>>> endpoint_value("CC(NCCc1ccc(O)cc1)C(O)c1ccc(O)cc1 (stereo unspecified) [RITODRINE]")
2.6
>>> endpoint_value("C[C@H]1c2cccc(O)c2C(=O)C2=C(O)[C@]3(O)C(=O)C(C(N)=O)=C(O)[C@@H](N(C)C)[C@@H]3[C@@H](O)[C@@H]21.O [DOXYCYCLINE]")
14
>>> endpoint_value("CN(C)CCCC1(c2ccc(F)cc2)OCc2cc(C#N)ccc21 (stereo unspecified) [CITALOPRAM]")
33

Would you be so kind as to report half-life for each listed record?
1. CCN(CC)CCNC(=O)c1ccc(NS(C)(=O)=O)cc1 [SEMATILIDE]
2. CCOC(=O)c1ncn2c1CN(C)C(=O)c1cc(F)ccc1-2 [FLUMAZENIL]
3. Nc1ccc(O)c(C(=O)O)c1 [MESALAMINE]
4. O=C1CN(/N=C/c2ccc(-c3ccc([N+](=O)[O-])cc3)o2)C(O)=N1 [DANTROLENE]
5. O=C1C(O)=C([C@H]2CC[C@H](c3ccc(Cl)cc3)CC2)C(=O)c2ccccc21 [ATOVAQUONE]
6. C[C@@](O)(/C=C/[C@H]1CC=CC(=O)O1)[C@@H](C[C@@H](O)\C=C/C=C\C=C\CO)OP(=O)(O)O [FOSTRIECIN]

Resp:
1: 3.8; 2: 0.78; 3: 0.61; 4: 10; 5: 63; 6: 1.5

Would you be so kind as to report half-life for each listed record?
1. C/C(=C\c1csc(C)n1)[C@@H]1C[C@@H]2O[C@]2(C)CCC[C@H](C)[C@H](O)[C@@H](C)C(=O)C(C)(C)[C@@H](O)CC(=O)N1 [IXABEPILONE]
2. CN[C@H](CC(C)C)C(=O)N[C@H]1C(=O)N[C@@H](CC(N)=O)C(=O)N[C@H]2C(=O)N[C@H]3C(=O)N[C@H](C(=O)N[C@H](C(=O)O)c4cc(O)cc(O)c4-c4cc3ccc4O)[C@H](O)c3ccc(c(Cl)c3)Oc3cc2cc(c3O[C@@H]2O[C@H](CO)[C@@H](O)[C@H](O)[C@H]2O[C@H]2C[C@](C)(N)[C@H](O)[C@H](C)O2)Oc2ccc(cc2Cl)[C@H]1O [VANCOMYCIN]
3. CC(C)(C)NC[C@H](O)COc1nsnc1N1CCOCC1 [TIMOLOL]
4. CO[C@@]1(NC(=O)CSCC#N)C(=O)N2C(C(=O)O)=C(CSc3nnnn3C)CS[C@@H]21 [CEFMETAZOLE]
5. COc1ccc(CC2c3cc(OC)c(OC)cc3CC[N+]2(C)CCC(=O)OCCCCCOC(=O)CC[N+]2(C)CCc3cc(OC)c(OC)cc3C2Cc2ccc(OC)c(OC)c2)cc1OC (stereo unspecified)
6. COC(=O)[C@H]1[C@@H](OC(=O)c2ccccc2)C[C@@H]2CC[C@H]1N2C [COCAINE]
7. CO[C@@]1(NC(=O)C2SC(=C(C(N)=O)C(=O)O)S2)C(=O)N2C(C(=O)O)=C(CSc3nnnn3C)CS[C@@H]21 (stereo partly specified) [CEFOTETAN]

Resp:
1. 17
2. 6.5
3. 2.2
4. 1.5
5. 0.31
6. 0.76
7. 4.5

Would you be so kind as to report half-life for each listed record?
1. CCCCCNC(=N)N/N=C/c1c[nH]c2ccc(OC)cc12 [TEGASEROD]
2. CC(C)NCC(O)c1ccc(O)c(O)c1 (stereo unspecified) [ISOPROTERENOL]
3. Cc1nnc2n1-c1ccc(Cl)cc1C(c1ccccc1)=NC2 [ALPRAZOLAM]
4. Cc1cccc(Nc2ccncc2S(=O)(=O)NC(=O)NC(C)C)c1 [TORSEMIDE]
5. O=C1c2cccc3c2[C@H](CCC3)CN1[C@@H]1CN2CCC1CC2 [PALONOSETRON]

Resp:
1. 11
2. 0.41
3. 12
4. 5.1
5. 39

Would you be so kind as to report half-life for each listed record?
1. C=CC[N+]1([C@H]2C[C@H]3[C@@H]4CC[C@H]5C[C@H](O)[C@@H](N6CCOCC6)C[C@]5(C)[C@H]4CC[C@]3(C)[C@H]2OC(C)=O)CCCC1 [ROCURONIUM]
2. N[C@@H](CC(=O)N1CCn2c(nnc2C(F)(F)F)C1)Cc1cc(F)c(F)cc1F [SITAGLIPTIN]

Resp:
1. 1.6
2. 12
